System: PC49
assay: qHTS profiling for inhibitors of Plasmodium falciparum proliferation (AID 504749); note: nearly all actives have a fitted effect of over 60% in size
details: P. falciparum in erythrocytes, SYBR Green DNA, 72 h; series mostly up to 28.7 µM
Records with an inconclusive call do not appear. Activity calls are given as the source filed them. Calls come from the whole dose curve; as a rule, active = well fitted inhibition curve with a large enough effect; inconclusive = small, poorly fitted or top-dose-only effect; inactive = flat fitted curve, though single readings scatter.
Possible outcomes: active, inactive

# molecule, label
measured = [
    ("Cc1ccnc2c1NC(=O)c1cccnc1N2C1CC1", "inactive"),
    ("C1CCC(C(CC2CCCCN2)C2CCCCC2)CC1 (centres undefined)", "active"),
    ("CC(=O)Oc1ccccc1C(=O)Nc1ncc([N+](=O)[O-])s1", "inactive"),
    ("COc1c(N2CCNC(C)C2)c(F)cc2c(=O)c(C(=O)O)cn(C3CC3)c12 (centres undefined)", "inactive"),
    ("CC(C)(Sc1cc(C(C)(C)C)c(O)c(C(C)(C)C)c1)Sc1cc(C(C)(C)C)c(O)c(C(C)(C)C)c1", "inactive"),
    ("CCN(C)C(=O)Oc1cccc([C@H](C)N(C)C)c1", "inactive"),
    ("S=P(N1CC1)(N1CC1)N1CC1", "inactive"),
    ("CN(CCOc1ccc(CC2SC(=O)NC2=O)cc1)c1ccccn1 (centres undefined)", "inactive"),
    ("CCOCC(O)COc1ccc(NC(=O)CC[S+](C)C)cc1 (centres undefined)", "inactive"),
    ("CCn1cc(C(=O)O)c(=O)c2cc(F)c(N3CCNCC3)cc21", "inactive"),
    ("COc1ccc(-c2ccc3cc(C(=O)O)ccc3c2)cc1C12CC3CC(CC(C3)C1)C2", "inactive"),
    ("CCCCOc1ccc(CC(=O)NO)cc1", "inactive"),
    ("CNS(=O)(=O)Cc1ccc2[nH]cc(CCN(C)C)c2c1", "inactive"),
    ("CN(C)c1ccc(C(=C2C=CC(=[N+](C)C)C=C2)c2ccc(N(C)C)cc2)cc1", "active"),
    ("NC(=O)N1c2ccccc2CC(=O)c2ccccc21", "inactive"),
    ("Nc1ccc(S(=O)(=O)Nc2ccccn2)cc1", "inactive"),
    ("CCn1cc(C(=O)O)c(=O)c2cc(F)c(N3CCNCC3)nc21", "inactive"),
    ("CN1CCCC(n2nc(Cc3ccc(Cl)cc3)c3ccccc3c2=O)CC1 (centres undefined)", "inactive"),
    ("C#CCN[C@@H]1CCc2ccccc21", "inactive"),
    ("CCOC(=O)c1ccc(OC(=O)CCCCCN=C(N)N)cc1", "inactive"),
    ("CC(C)Cn1cnc2c(N)nc3ccccc3c21", "inactive"),
    ("Cc1cccc(N(C)C(=S)Oc2ccc3ccccc3c2)c1", "inactive"),
    ("CN1CCN(c2c(F)cc3c(=O)c(C(=O)O)cn(CCF)c3c2F)CC1", "inactive"),
    ("O=P(O)(O)C(O)(Cc1cccnc1)P(=O)(O)O", "inactive"),
]

Entry source: PubChem BioAssay (NCATS)
